Source listed as patent US20110177071A1.

Provide the reported Binding Avidity (Relative to Orencia) of each item.
# tested_system: T1, human CD86-murine Ig fusion protein (human)
# T1 construct: Bought (Ancell #509-820); also called hCD86-mIg
# T1 chain: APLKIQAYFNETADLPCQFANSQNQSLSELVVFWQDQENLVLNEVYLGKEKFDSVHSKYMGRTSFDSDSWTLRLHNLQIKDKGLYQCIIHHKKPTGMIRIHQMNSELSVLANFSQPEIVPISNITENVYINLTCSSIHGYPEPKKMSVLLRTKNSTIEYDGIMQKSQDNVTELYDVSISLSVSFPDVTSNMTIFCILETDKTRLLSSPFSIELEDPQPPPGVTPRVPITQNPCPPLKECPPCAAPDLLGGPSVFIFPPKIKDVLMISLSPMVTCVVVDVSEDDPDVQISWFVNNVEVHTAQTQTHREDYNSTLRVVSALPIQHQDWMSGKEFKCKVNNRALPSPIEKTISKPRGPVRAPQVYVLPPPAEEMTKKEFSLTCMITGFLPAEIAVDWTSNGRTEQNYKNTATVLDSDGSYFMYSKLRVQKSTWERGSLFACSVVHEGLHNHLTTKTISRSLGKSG
# test_description: SPR Biacore, hCD86-mIg captured

[in] Look up Binding Avidity (Relative to Orencia) for this binder: D3-71-IgG2 (Fc fusion) MHVAQPAVVLASSRGIASFVCEYASPGKANEIRVTVLRQADSQVTEVCAMTYMKGDELTFLDDPSCTGTFSGNQVNLTIQGLRAMDTGLYICKVELMYPPPYYEGIGNGTQIYVIDPEPCPDSDERKCCVECPPCPAPPVAGPSVFLFPPKPKDTLMISRTPEVTCVVVDVSHEDPEVQFNWYVDGVEVHNAKTKPREEQFNSTFRVVSVLTVVHQDWLNGKEYKCKVSNKGLPAPIEKTISKTKGQPREPQVYTLPPSREEMTKNQVSLTCLVKGFYPSDIAVEWESNGQPENNYKTTPPMLDSDGSFFLYSKLTVDKSRWQQGNVFSCSVMHEALHNHYTQKSLSLSPG
[out] > 40 fold

[in] Look up Binding Avidity (Relative to Orencia) for this binder: D24-IgG2 (Fc fusion) MHVAQPAVVLASSRGIASFVCEYESPGKANEIRVTVLRKAGSQVTEVCAMTYMKEDELTFLDDPSCTGTFSGNQVNLTIQGLRAADTGLYICKVELMYPPPYYLGLGNGTQIYVIDPEPCPDSDERKCCVECPPCPAPPVAGPSVFLFPPKPKDTLMISRTPEVTCVVVDVSHEDPEVQFNWYVDGVEVHNAKTKPREEQFNSTFRVVSVLTVVHQDWLNGKEYKCKVSNKGLPAPIEKTISKTKGQPREPQVYTLPPSREEMTKNQVSLTCLVKGFYPSDIAVEWESNGQPENNYKTTPPMLDSDGSFFLYSKLTVDKSRWQQGNVFSCSVMHEALHNHYTQKSLSLSPG
[out] > 40 fold
